Recorded values, source patent US8101766B2.

# Study Target: β2 adrenergic receptor (Homo sapiens)
# Sequence (P07550 whole entry): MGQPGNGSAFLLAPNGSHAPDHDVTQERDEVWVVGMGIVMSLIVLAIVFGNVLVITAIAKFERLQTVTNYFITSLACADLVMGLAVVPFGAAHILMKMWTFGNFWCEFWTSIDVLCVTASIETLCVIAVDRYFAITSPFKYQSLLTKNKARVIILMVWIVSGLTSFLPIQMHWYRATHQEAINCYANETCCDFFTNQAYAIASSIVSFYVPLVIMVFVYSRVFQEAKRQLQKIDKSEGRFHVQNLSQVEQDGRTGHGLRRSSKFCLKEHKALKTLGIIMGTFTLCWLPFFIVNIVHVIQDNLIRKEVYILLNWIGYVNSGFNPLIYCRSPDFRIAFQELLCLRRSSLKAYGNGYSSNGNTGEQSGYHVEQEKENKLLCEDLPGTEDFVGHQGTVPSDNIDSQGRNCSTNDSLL
pKi: −log10 of the molar value.
Observed Property: pKi

Please tell me: pKi of COc1cc(NC(=O)CCN2CCC(OC(=O)Nc3ccccc3-c3ccccc3)CC2)c(Cl)cc1CNC[C@H](O)c1ccc(O)c2[nH]c(=O)ccc12 , system β2 adrenergic receptor (Homo sapiens)?
> 8.00

----------
# Study Target: hM1 receptor (Homo sapiens, UniProt P11229)
# Sequence (P11229 1-460): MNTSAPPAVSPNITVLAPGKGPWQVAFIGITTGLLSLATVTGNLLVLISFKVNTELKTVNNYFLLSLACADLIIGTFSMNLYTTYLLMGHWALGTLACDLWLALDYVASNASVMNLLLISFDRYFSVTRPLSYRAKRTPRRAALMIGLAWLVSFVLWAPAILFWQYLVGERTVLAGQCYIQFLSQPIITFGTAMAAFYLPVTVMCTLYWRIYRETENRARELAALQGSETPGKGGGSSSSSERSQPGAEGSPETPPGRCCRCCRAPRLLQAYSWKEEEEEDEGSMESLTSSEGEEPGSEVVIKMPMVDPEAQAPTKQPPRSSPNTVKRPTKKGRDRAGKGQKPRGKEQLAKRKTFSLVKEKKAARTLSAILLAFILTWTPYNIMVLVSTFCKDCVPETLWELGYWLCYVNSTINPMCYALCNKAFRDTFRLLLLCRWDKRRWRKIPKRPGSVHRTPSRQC
# Procedure Text: Blockade of agonist-mediated calcium release via FLIPR assay (hM1)
# Applied Conditions: CHO cells stably expressing hM1
pKi: −log10 of the molar value.
Observed Property: pKi

So what's the measured pKi for this one? COc1cc(NC(=O)CCN2CCC(OC(=O)Nc3ccccc3-c3ccccc3)CC2)c(Cl)cc1CNC[C@H](O)c1ccc(O)c2[nH]c(=O)ccc12
> 8.00

----------
# Study Target: UniProtKB P20309
# Sequence (P20309 whole entry): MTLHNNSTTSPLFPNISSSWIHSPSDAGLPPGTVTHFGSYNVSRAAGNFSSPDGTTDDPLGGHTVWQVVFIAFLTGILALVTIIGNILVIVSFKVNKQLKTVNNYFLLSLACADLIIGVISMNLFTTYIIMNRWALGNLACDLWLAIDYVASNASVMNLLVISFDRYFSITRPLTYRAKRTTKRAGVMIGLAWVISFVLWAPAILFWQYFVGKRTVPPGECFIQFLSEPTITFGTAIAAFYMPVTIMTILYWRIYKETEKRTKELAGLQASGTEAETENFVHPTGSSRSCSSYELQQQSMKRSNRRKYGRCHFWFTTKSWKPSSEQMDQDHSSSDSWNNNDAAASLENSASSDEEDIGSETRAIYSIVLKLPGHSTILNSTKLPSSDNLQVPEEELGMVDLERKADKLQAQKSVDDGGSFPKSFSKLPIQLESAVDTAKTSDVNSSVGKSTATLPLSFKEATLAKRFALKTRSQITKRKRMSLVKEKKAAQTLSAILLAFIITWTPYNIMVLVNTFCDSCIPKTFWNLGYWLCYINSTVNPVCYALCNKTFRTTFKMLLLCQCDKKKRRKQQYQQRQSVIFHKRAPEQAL
# Procedure Text: Blockade of agonist-mediated calcium release via FLIPR assay (hM3)
# Applied Conditions: CHO cells stably expressing hM3
pKi: −log10 of the molar value.
Observed Property: pKi

So what's the measured pKi for this one? COc1cc(NC(=O)CCN2CCC(OC(=O)Nc3ccccc3-c3ccccc3)CC2)c(Cl)cc1CNC[C@H](O)c1ccc(O)c2[nH]c(=O)ccc12
> 8.00
